- Tested on: PC-3
- measurement notes: Cytotoxicity against human PC3 cells assessed as cell viability at 10 uM after 24 hrs by MTT assay relative to control
- Assay type: functional
- condition: PC-3, 24 h, read-out: Activity
property: viability at 10 µM (%)

>>> print(df.to_string())
                                   compound  measured
0  C=C1C(=O)O[C@@H]2[C@H]3O[C@]3(C)CC/C=C(/C)[C@@H](OC(C(=O)OCC)c3ccccc3)C[C@@H]12 (stereo not given in full)      78.9
1  C=C1C(=O)O[C@@H]2[C@H]3O[C@]3(C)CC/C=C(/C)[C@@H](OC(C(=O)OCc3ccccc3)c3ccccc3)C[C@@H]12 (stereo not given in full)      91.9
2  C=C1C(=O)O[C@@H]2[C@H]3O[C@]3(C)CC/C=C(/COC(=O)Nc3ccc([N+](=O)[O-])cc3)CC[C@@H]12      17.7
3  C=C1C(=O)O[C@@H]2[C@H]3O[C@]3(C)CC/C=C(/COC(=O)Nc3cc(C(F)(F)F)cc(C(F)(F)F)c3)CC[C@@H]12      13.7
4  C=C1C(=O)O[C@@H]2[C@H]3O[C@]3(C)CC/C=C(/COC(C(=O)OCC)c3ccc(C(F)(F)F)cc3)CC[C@@H]12 (stereo not given in full)      87.2
5  C=C1C(=O)O[C@@H]2[C@H]3O[C@]3(C)CC/C=C(/C)[C@@H](OC(=O)c3ccc(C(F)(F)F)cc3C(F)(F)F)C[C@@H]12       6.4
6  C=C1C(=O)O[C@@H]2[C@H]3O[C@]3(C)CC/C=C(/C)[C@@H](OC(=O)Nc3ccc(F)cc3F)C[C@@H]12      82.8
7  C=C1C(=O)O[C@@H]2[C@H]3O[C@]3(C)CC/C=C(/COC(=O)Nc3cccc4ccccc34)CC[C@@H]12      81.9
8  C=C1C(=O)O[C@@H]2[C@H]3O[C@]3(C)CC/C=C(/C)[C@@H](OC(=O)c3ccc4ccccc4c3)C[C@@H]12      83.4
9  C=C1C(=O)O[C@@H]2[C@H]3O[C@]3(C)CC/C=C(/C)[C@@H](OC(=O)Nc3ccccc3)C[C@@H]12      88.4
